Recorded glycan array binding signal (z-score) values for a group of binders are listed next.
System Tested: Neu5Ac(a2-8)Neu5Ac(a2-3)Gal(b1-3)GalNAc(b1-4)[Neu5Ac(a2-3)]Gal(b1-4)Glc
Test: glycan array binding signal (z-score within array); higher = stronger binding
Measurement Parameters: glycan notation: IUPAC condensed, linker removed
Only a selection was taken, and the strongest signals are over-represented in it overall.
// no unit string in output, number only

Example entries and their recorded answers appear below.
>>> recorded_measurement("LlpB (Pseudomonas fluorescens) (protein) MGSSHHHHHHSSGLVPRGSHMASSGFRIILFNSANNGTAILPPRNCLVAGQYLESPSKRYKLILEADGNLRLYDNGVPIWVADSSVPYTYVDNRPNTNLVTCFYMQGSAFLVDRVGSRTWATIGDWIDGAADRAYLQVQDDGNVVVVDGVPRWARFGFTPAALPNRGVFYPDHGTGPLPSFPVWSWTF")
2.81
>>> recorded_measurement("Gal 4 (Mus musculus), P56470 (protein) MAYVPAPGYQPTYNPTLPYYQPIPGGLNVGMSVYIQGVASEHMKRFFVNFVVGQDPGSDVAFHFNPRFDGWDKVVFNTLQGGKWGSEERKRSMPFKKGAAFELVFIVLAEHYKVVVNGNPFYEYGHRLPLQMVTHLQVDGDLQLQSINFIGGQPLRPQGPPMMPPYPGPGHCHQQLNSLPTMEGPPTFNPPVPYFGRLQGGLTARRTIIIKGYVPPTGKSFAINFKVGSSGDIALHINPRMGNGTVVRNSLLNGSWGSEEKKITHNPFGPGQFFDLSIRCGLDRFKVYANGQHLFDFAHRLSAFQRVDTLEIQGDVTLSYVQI")
-0.247
>>> recorded_measurement("Lb MiSSP8 (Laccaria bicolor) (protein) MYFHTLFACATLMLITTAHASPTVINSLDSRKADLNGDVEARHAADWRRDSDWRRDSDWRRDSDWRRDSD")
-0.336
>>> recorded_measurement("OGAA (protein) MVQKESQATLEERESELSSNPAASAGASLEPPAAPAPGEDNPAGAGGAAVAGAAGGARRFLCGVVEGFYGRPWVMEQRKELFRRLQKWELNTYLYAPKDDYKHRMFWREMYSVEEAEQLMTLISAAREYEIEFIYAISPGLDITFSNPKEVSTLKRKLDQVSQFGCRSFALLFADIDHNMCAADKEVFSSFAHAQVSITNEIYQYLGEPETFLFCPTEYCGTFCYPNVSQSPYLRTVGEKLLPGIEVLWTGPKVVSKEIPVESIEEVSKIIKRAPVIWDNIHANDYDQKRLFLGPYKGRSTELIPRLKGVLTNPNCEFEANYVAIHTLATWYKSNMNGVRKDVVMTDSEDSTVSIQIKLENEGSDEDIETDVLYSPQMALKLALTEWLQEFGVPHQY")
-0.107

# return recorded glycan array binding signal (z-score) for entry GNL (Galanthus nivalis) (protein) MGHHHHHHHHYGTLENGHWLMVGMSIFSKDRTVELRMQDDGKLAIYYNDHCAWQSTAQQVNNAKGAVMQGDGNFCIYDKNGKATWHTNTAAPSGDSHTFVSVQDDGNLVLYKNNGATPIWSSKSNK
-0.285
